test: HUVEC growth inhibition – cell-based, human, primary screen (AID 575); conditions: HUVEC proliferation, CellTiter-Glo luminescence, 72 h; at 10 µM; hits give low values;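 note: 100% = median of untreated cell wells with 0.1% DMSO on each plate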
molecules and their reported viability
Write down the numeric answer in % and omit the unit.

INSERT INTO results (molecule, reported_value) VALUES
  ('Cc1ccc(-n2nnnc2SCC(=O)Nc2c(C)n(C)n(-c3ccccc3)c2=O)cc1', 105);

Tell me measured viability for COc1cc(C2C(C(=O)c3ccc(C)o3)=C(O)C(=O)N2c2cc(C)on2)cc(Br)c1O (configuration not stated) please.
99.8

Tell me measured viability for O=C(CSc1nc(-c2ccccc2)cs1)NCc1ccco1 please.
103

Tell me measured viability for Cc1ccc2oc(-c3ccccc3C(=O)O)cc(=O)c2c1 please.
89.3

Tell me measured viability for CN(C)S(=O)(=O)c1ccc(/C(O)=C2/C(=O)C(=O)N(CCN3CCCCC3)C2c2cccnc2)cc1 (configuration not stated) please.
92.1

Tell me measured viability for O=C(COC(=O)CSc1nnc(-c2ccc(Cl)cc2)o1)NCc1ccc2c(c1)OCO2 please.
90.8

###

experiment: growth suppression of PTEN-deleted HCT116, pilot screen, cell-based, HCT116 clonal line, CellTiter-Glo (AID 824); conditions: 60 h, at 10 µM, hits give low values;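 note: 0% = 20 µM Hyamine control and 100% = vehicle cell control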
Results filed as inconclusive are left out.
compounds and their reported viability
Write down the numeric answer in % and omit the unit.

Would you please look over these solved cases?
INSERT INTO results (compound, measurement_units, reported_value) VALUES
  ('CC(C)N1C(=O)CCC1C(=O)NCCc1ccc(Cl)cc1 (stereo unspecified)', '%', 97.3),
  ('NC(=O)CSc1nnc(Cn2c(=O)sc3ccccc32)n1CCc1ccccc1', '%', 94.2),
  ('COc1ccc(N(CC(=O)NCc2ccco2)S(=O)(=O)c2c(C)nn(C)c2C)cc1', '%', 92.6),
  ('Cc1nc2cc(-c3cccc(F)c3)nn2c(C)c1CCC(=O)NC(C)CCc1ccco1 (stereo unspecified)', '%', 72.6),
  ('Cc1ccccc1C(=O)Nc1ccccc1', '%', 85.4);

Tell me measured viability for COc1ccc(-c2noc(-c3ccccc3F)n2)cc1 please.
83.1

Tell me measured viability for COc1cc(C)c(C(C)C)cc1S(=O)(=O)n1cnc(C)c1 please.
37.8

Tell me measured viability for Cc1c(N=c2c(=O)c3ccccc3c2=O)c(=O)n(-c2ccccc2)n1C please.
95.3

Tell me measured viability for CN1CCN(S(=O)(=O)c2ccc(-c3ccc(S(=O)(=O)N4CCN(C)CC4)cc3)cc2)CC1 please.
96.2

Tell me measured viability for O=C(COc1ccc2c3c(c(=O)oc2c1)CCC3)c1ccc2c(c1)OCO2 please.
65.1

Tell me measured viability for CCc1cccc(OCCCCNCCOC)c1 please.
99.3

###

experiment: OD615 S. cerevisiae growth inhibition, permissive medium, pilot counter-assay, permissive growth control for S. cerevisiae lifespan shortening project (AID 705); conditions: OD615, 24 h, at 10 µM, hits give high values
Measurement kind: growth inhibition (%)
Write down the numeric answer in % and omit the unit.

Tell me measured growth inhibition for Cc1ccc(C)n1-n1c(C)nc2scc(-c3cccs3)c2c1=O please.
-13.1

Tell me measured growth inhibition for CCC(C)NC(=O)CN(c1ccc2c(c1)OCO2)S(=O)(=O)c1c(C)n[nH]c1C (stereo unspecified) please.
-12.1

Tell me measured growth inhibition for COc1ccc(CCNC(=O)CSc2nnnn2-c2ccccc2)cc1 please.
2.08

Tell me measured growth inhibition for CC1(C)CC(=O)C2=C(C1)Nc1ccccc1NC2c1ccccn1 (stereo unspecified) please.
11.4

Tell me measured growth inhibition for COc1ccc(OC)c(NC(=O)c2ccc(CN3CCOCC3)cc2)c1 please.
9.65

###

compounds and their reported RAM network inhibition
assay: RAM signaling pathway blockade in yeast – S. cerevisiae, Pdr1DBD-CYC8 efflux-inhibited sensitized strain, primary screen (AID 1298);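 note: 0% = DMSO untreated cells without growth and 100% = 10 µM 1-NA-PP1 full growth; higher means more yeast growth rescued from 5-FOA killing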; settings: S. cerevisiae cbk1-as DSE1-URA3 strain, 5-FOA growth OD615, 2 d; at 50 µM; hits give high values
Write down the numeric answer in % and omit the unit.

Would you please look over these solved cases?
INSERT INTO results (compound, measurement_kind, measurement_units, reported_value) VALUES
  ('CS(=O)(=O)c1nc(-c2cccs2)cc(C(F)(F)F)n1', 'RAM network inhibition', '%', -0.11),
  ('COc1ccc(CCNS(=O)(=O)c2ccc3c(c2)OCCO3)cc1OC', 'RAM network inhibition', '%', 1.02),
  ('Cc1nn(C)c(C)c1S(=O)(=O)N(CC(=O)Nc1ccccn1)c1ccc(C(C)C)cc1', 'RAM network inhibition', '%', -0.48),
  ('CCOC(=O)Cc1csc(NC(=O)Nc2ccccc2)n1', 'RAM network inhibition', '%', 4.19),
  ('O=C1C=C(NCc2ccco2)CC(c2ccc(Cl)cc2)C1 (stereo unspecified)', 'RAM network inhibition', '%', 3.64);

Tell me measured RAM network inhibition for CC1CSc2nnc(CCc3ccccc3)n21 (stereo unspecified) please.
-0.11

Tell me measured RAM network inhibition for Cc1cc(OCc2ccc(F)cc2)nc(-c2ccccc2O)n1 please.
2.72

Tell me measured RAM network inhibition for COC(=O)c1ccsc1NC(=O)C1COc2ccccc2O1 (stereo unspecified) please.
8.05

Tell me measured RAM network inhibition for CCCCS(=O)CC(CS(=O)CCCC)OC(=O)c1ccc(C)cc1 (stereo unspecified) please.
0.87

Tell me measured RAM network inhibition for COc1ccc(N(CC(=O)NCc2ccccc2OC)S(=O)(=O)c2c(C)nn(C)c2C)cc1 please.
2.29

Tell me measured RAM network inhibition for COc1ccc(OC)c(S(=O)(=O)NCc2cn3c(C)csc3n2)c1 please.
5.95

###

assay: reversal of MRP1-mediated doxorubicin resistance, pilot screen, H69AR cells, doxorubicin co-treatment (AID 601); conditions: H69AR cells + 2 uM doxorubicin, CellTiter-Glo, 72 h; at 10 µM; hits give high values
Measurement kind: differential viability (reversal) (%)
Write down the numeric answer in % and omit the unit.

Tell me measured differential viability (reversal) for O=C(c1cn(-c2ccccc2)nc1-c1cccs1)N1CCN(c2ccccn2)CC1 please.
-40

Tell me measured differential viability (reversal) for O=c1oc2ccccc2c(O)c1C=NCc1ccccn1 please.
-10.5

Tell me measured differential viability (reversal) for COc1ccc2[nH]c(=O)c(CN(C(=O)c3ccncc3)C(C)C)cc2c1 please.
4.29

###

assay: RAM signaling pathway blockade in yeast – S. cerevisiae, Pdr1DBD-CYC8 efflux-inhibited sensitized strain, primary screen (AID 1298);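 note: 0% = DMSO untreated cells without growth and 100% = 10 µM 1-NA-PP1 full growth; higher means more yeast growth rescued from 5-FOA killing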; settings: S. cerevisiae cbk1-as DSE1-URA3 strain, 5-FOA growth OD615, 2 d; at 50 µM; hits give high values
Rule: RAM network inhibition under 4% gives Condition not met, otherwise Condition met.

Here are 2 compounds together with their reported answers.
INSERT INTO assay_data (compound, class_assignment) VALUES
  ('O=C(CSc1nnc(Cc2cc(=O)[nH]c(=O)[nH]2)n1-c1ccc(Cl)cc1)NC1CCCC1', 'Condition not met'),
  ('COc1cccc(NC(=O)c2ccncc2)c1', 'Condition met');

Does Brc1[nH]nc2ccccc12 have a reported RAM network inhibition of at least 4%?
Condition not met

Does COc1ccc(OCCSc2ncnc3nc[nH]c23)cc1 have a reported RAM network inhibition of at least 4%?
Condition met

Does CNC(=O)c1ccc(-c2sc3nc(N4CCOCC4)c4c(c3c2N)CCCC4)o1 have a reported RAM network inhibition of at least 4%?
Condition met

Does O=C(NCc1ccc(N2CCCC2=O)cc1)c1cn(CCc2ccccc2)nn1 have a reported RAM network inhibition of at least 4%?
Condition met

Does COC(=O)c1ccc(C2c3c(oc4cc(C)c(C)cc4c3=O)C(=O)N2CCCN(C)C)cc1 (configuration not stated) have a reported RAM network inhibition of at least 4%?
Condition not met

Does O=C(c1cnn2ccccc12)N(Cc1ccco1)C1CCCC1 have a reported RAM network inhibition of at least 4%?
Condition not met

Does CCOC(=O)C(CCC#N)(CCC#N)C(=O)OCC have a reported RAM network inhibition of at least 4%?
Condition met

###

compounds and their reported viability
experiment: growth suppression of PTEN-deleted HCT116, pilot screen, cell-based, HCT116 clonal line, CellTiter-Glo (AID 824); conditions: 60 h, at 10 µM, hits give low values;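 note: 0% = 20 µM Hyamine control and 100% = vehicle cell control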
Results filed as inconclusive are left out.
Write down the numeric answer in % and omit the unit.

Would you please look over these solved cases?
INSERT INTO assay_data (compound, reported_value) VALUES
  ('Cc1nc2nc(SCC(=O)N3CCOCC3)nn2c(C)c1Cc1ccccc1', 95.5),
  ('Cc1nc(N2CCN(c3ccccc3)CC2)c2c3c(sc2n1)CCC3', 81.5),
  ('CCC1(C)OC(=O)N2CCc3c(C)[nH]c4c(C)ccc(c34)C21C (stereo unspecified)', 91.3),
  ('COCCNC(=O)C1c2ccccc2C(=O)N(CCOC)C1c1ccc(F)cc1 (stereo unspecified)', 101),
  ('Cc1cccc(OCCOCCSc2ncccn2)c1', 94.8);

Tell me measured viability for COc1ccc(C2CC(c3ccc(F)cc3)Nc3nc(N)nn32)cc1OC (stereo unspecified) please.
92.4
